Value source: patent US20240279215A1

ASSAY SUMMARY: Brain exposure assay in mice (brain-to-plasma ratio after oral administration)
Format: in vivo
MEASUREMENT SETUP: male, C57BL/6JNIFDC, mouse, brain, oral, 100 mg/kg, 6 hr, read-out: Cbrain, total
Would you please tag the item yes (1) when its concentration at 6 h is 2 µM or above, and no (0) when it is below?

[
  {
    "COMPOUND STRUCTURE": "CN(C)S(=O)(=O)N1CCC(Cc2ccc(NC(=O)OCc3cnco3)cc2)CC1",
    "LABEL VALUE": "no (0)"
  },
  {
    "COMPOUND STRUCTURE": "CN(C)C(=O)N1CC2(CC(c3ccc(NC(=O)OCc4cnco4)cc3F)C2)C1",
    "LABEL VALUE": "no (0)"
  }
]

Item CN(C)S(=O)(=O)N1CC2(CC(Cc3ccc(NC(=O)OCc4cnco4)cc3F)C2)C1 with concentration at 6 h of 2 µM or above?
yes (1)

Item CN(C)C(=O)N1CCC[C@H](c2ccc(NC(=O)OCc3cnco3)cc2)C1 with concentration at 6 h of 2 µM or above?
yes (1)

Item CN(C)C(=O)N1CCC(Cc2ccc(NC(=O)OCc3cnco3)cc2F)CC1 with concentration at 6 h of 2 µM or above?
yes (1)

====

# pEC50 per entry
TESTED ON: UniProt P43490
ASSAY SUMMARY: NMN fluorescence biochemical assay (human recombinant NAMPT enzyme assay)
Remember the convention: pEC50 equals -log10 of concentration in molar.

Solved entries (count: 3):
[
  {
    "COMPOUND STRUCTURE": "CC(=O)N1CCC[C@@H](c2ccc(NC(=O)OCc3cnco3)cc2)C1",
    "pEC50": 4.77
  },
  {
    "COMPOUND STRUCTURE": "CN(C)C(=O)N1CC2(CC(c3ccc(NC(=O)OCc4cnco4)cc3F)C2)C1",
    "pEC50": 4.81
  },
  {
    "COMPOUND STRUCTURE": "CCn1nccc1C(=O)N[C@@H](C)c1ccc(NC(=O)OCc2ccc(Cl)cc2)cc1",
    "pEC50": 5.38
  }
]

Please tell me: pEC50 of O=C(Nc1ccc(CC(=O)N2CCC[C@@H](O)C2)cc1)OCc1ccc(Cl)cc1 , system UniProt P43490?
4.49

Please tell me: pEC50 of O=C(Nc1ccc(Cc2ccncc2)cc1)OCc1ccncc1 , system UniProt P43490?
5.21

====

TESTED ON: human NAMPT (Homo sapiens (Human))
Sequence (P43490 whole entry): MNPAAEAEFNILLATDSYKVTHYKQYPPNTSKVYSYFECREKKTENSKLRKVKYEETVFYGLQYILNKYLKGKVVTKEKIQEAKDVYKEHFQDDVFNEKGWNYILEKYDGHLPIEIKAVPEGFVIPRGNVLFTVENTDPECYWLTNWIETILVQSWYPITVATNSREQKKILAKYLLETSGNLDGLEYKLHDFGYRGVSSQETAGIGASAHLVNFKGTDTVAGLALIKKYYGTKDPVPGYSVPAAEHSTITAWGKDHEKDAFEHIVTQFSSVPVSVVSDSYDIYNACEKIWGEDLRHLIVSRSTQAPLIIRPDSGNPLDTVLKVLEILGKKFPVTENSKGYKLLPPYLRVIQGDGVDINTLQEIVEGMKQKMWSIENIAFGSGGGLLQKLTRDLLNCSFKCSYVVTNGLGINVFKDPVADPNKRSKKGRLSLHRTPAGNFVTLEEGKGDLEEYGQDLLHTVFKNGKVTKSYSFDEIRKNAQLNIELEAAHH
ASSAY SUMMARY: NMN fluorescence biochemical assay (human recombinant NAMPT enzyme assay)
# EC50 per entry
Write the quantity with the unit trailing the number.

[
  {
    "COMPOUND STRUCTURE": "COC(=O)N1CCC(Cc2ccc(NC(=O)OCc3ccncc3)cc2)CC1",
    "EC50": "2.76 µM"
  }
]

GET /values?readout=EC50&item= O=C(Nc1ccc(CNC(=O)c2ccc(C(F)F)nc2)cc1)OCc1ccc(Cl)cc1
2.04 µM

GET /values?readout=EC50&item= O=C(Nc1ccc(CN2CCN(C3COC3)CC2)cc1)OCc1ccc(Cl)cc1
17.6 µM

GET /values?readout=EC50&item= Cc1cnoc1C(=O)N[C@@H](C)c1ccc(NC(=O)OCc2ccc(Cl)cc2)cc1
7.35 µM
